test system: Neuronal cortical cells; experiment: Assay for test compound cytoxicity, MTS (Assay 3(d)); format: cell-based, mouse; settings: BL6J×129sv, mouse, 4 days, 10 uM
MEASURED_PARAMETER: Viable 10 uM
One number for each entry.

// below: answered compounds
CC(=O)NCc1ccc2cccc(O)c2n1: 90.69
Oc1c(-c2ccsc2)cc(Cl)c2cccnc12: 30.59
Oc1c(-c2ccccc2)cc(Cl)c2cccnc12: 71.89
O=C(Nc1ccccc1O)c1ccc2cccc(O)c2n1: 91.86

Sample Oc1c(-c2cc(F)cc(F)c2)cc(Cl)c2cccnc12 ; Viable 10 uM observed: 66

----------
Kindly state Viable 10 uM for each of the entries shown.
Tested on: Neuronal cortical cells
Experiment: Assay for test compound cytoxicity, MTS (Assay 3(d))
Assay type: cell-based, mouse
Conditions: BL6J×129sv, mouse, 4 days, 10 uM
Procedure: Media was then replaced with Neurobasal media (Invitrogen Life Technologies) and B27 supplements (Invitrogen Life Technologies). Cultures were maintained at 37° C. in 5% CO2. […] Cell viability is determined using the MTS assay. […] 200 microliter aliquots are measured with a spectrophotometer at 560 nm. […] On completion of the assay, 1/10 volume MTS was added per well of plate (ie 25 ul/250 ul). The plates were incubated at 37 C for 2 hrs, and then absorbance was read at 560 nm.
One number for each entry.

Oc1ccccc1-c1cc(Cl)c2cccnc2c1O: 70.4

For every item in the list below, what is its measured Viable 10 uM?
1. Oc1c(-c2ccccc2F)cc(Cl)c2cccnc12
2. O=C(Nc1nccs1)c1ccc2cccc(O)c2n1

Result string:
1: 53.68; 2: 99.52

For every item in the list below, what is its measured Viable 10 uM?
1. Cc1ccccc1-c1cc(-c2ccccc2C)c2cccnc2c1O
2. Cc1cnc(NC(=O)c2ccc3cccc(O)c3n2)s1

Result string:
1. 33.52
2. 67.8

----------
test: Pharmacokinetic profile, IV and oral (Assay 16); assay type: in vivo; details: rat, plasma, po, 30 mg/kg, PO 30 mg/Kg, individual rats
Kindly state Cmax for each of the entries shown.
Numbers only, in µM.

O=C(NCCc1c[nH]cn1)c1ccc2c(Cl)cc(Cl)c(O)c2n1: 57.8

Okay, now this molecule:
Sample CN(C)Cc1ccc2c(Cl)cc(Cl)c(O)c2n1.Cl ; Cmax observed: 2.02

----------
assay: Pharmacokinetic profile, IV and oral (Assay 16); assay type: in vivo; details: rat, plasma, iv, 2 mg/kg, IV, Mean ± SD, read-out: Cltotal (mL/min/Kg), total plasma clearance
MEASURED_PARAMETER: clearance (mL/min/kg)
Numbers only, in mL/min/kg.

Sample CN(C)Cc1ccc2c(Cl)cc(Cl)c(O)c2n1.Cl ; clearance observed: 118

----------
Kindly state IC50 for each of the entries shown.
target: hydrogen peroxide generation by Aβ in the presence of copper (Homo sapiens); construct: The reaction solutions contained Aβ 1-42 at concentrations in the range of 50 nM to 1 μM; test: Fluorometric H2O2 assay (Assay 1); assay type: biochemical; conditions: Aβ 1-42 with Cu-Gly, DCF/HRP, 37 C 60 min; several values in one cell = repeat determinations; read-out: Peroxide IC50
Sequence (P05067 672-713 limits assumed): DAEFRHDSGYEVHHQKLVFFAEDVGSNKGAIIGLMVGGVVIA
Give bare numbers, in nM.

Oc1c(Cl)cc(-c2cccnc2)c2cccnc12: 430
O=C(c1ccc2cccc(O)c2n1)N(Cc1ccccn1)Cc1ccccn1: 1300

For every item in the list below, what is its measured IC50?
1. O/N=C/c1ccc2c(Cl)cc(Cl)c(O)c2n1
2. N=C(N)NCc1ccc2cccc(O)c2n1
3. Oc1cccc2ccc(CN(Cc3ccccn3)Cc3c[nH]cn3)nc12
4. O=C(Nc1ccccc1O)c1ccc2cccc(O)c2n1
5. Oc1cccc2ccc(CN(Cc3ccccn3)Cc3ccccn3)nc12
6. CN(C)Cc1ccc2c(Cl)cc(Cl)c(O)c2n1.Cl [compound 1033, hydrochloride]

Result string:
1: 760; 2: 4300; 3: 320; 4: 1430; 5: 330; 6: 380

For every item in the list below, what is its measured IC50?
1. O=Cc1ccccc1-c1cc(Cl)c2cccnc2c1O
2. Oc1cccc2ccc(CN(Cc3ccccn3)Cc3nccs3)nc12
3. Oc1cccc2ccc(-n3cccn3)nc12
4. Oc1cccc2ccc(CN(CCc3c[nH]cn3)Cc3nccs3)nc12
5. Oc1cccc2ccc(CN(CCc3c[nH]cn3)Cc3ccccn3)nc12

Result string:
1. 4500
2. 550
3. 7100
4. 390
5. 320

For every item in the list below, what is its measured IC50?
1. Cc1cccc(-c2ccc3cccc(O)c3n2)n1
2. CC(=O)NCc1ccc2cccc(O)c2n1
3. O=C(NCc1ccccn1)c1ccc2cccc(O)c2n1

Result string:
1: 580; 2: 7800; 3: 900
